assay: Pharmacokinetic study in rats (plasma and red blood cell); format: in vivo; conditions: male, Sprague-Dawley, red blood cells; rat, oral, 7.2 mg/kg, red blood cell (calculated by mass balance from whole blood and plasma); read-out: Cmax RBC
Counter-ions that a name gives are not always drawn.
observation_type: Cmax (µg/mL)
// return numeric value only (unit: µg/mL, not printed)

Recorded results for 3 molecules are shown here.
{"columns": ["molecule", "observation_type", "numeric_value"],
 "data": [
  ["Cl.[2H]C([2H])(Oc1cc(F)cc(O)c1C=O)c1cccnc1-c1ccnn1C(C)C [Example 27]", "Cmax", 50.3],
  ["[2H]C([2H])(Oc1cccc(O)c1C=O)c1cncnc1-c1ccnn1C(C)C [Example 38]", "Cmax", 116],
  ["CC(C)n1nccc1-c1ncccc1COc1cccc(O)c1C=O [GBT-440 (HCl salt), reference compound]", "Cmax", 216]
]}

Query molecule follows.
-- ask Bench note: what Cmax did Cl.[2H]C([2H])(Oc1cccc(O)c1C=O)c1cccnc1-n1ccnc1C(C)C [Example 29] show?
-- reply 1240

* * *

experiment: Pharmacokinetic study in rats (plasma and red blood cell); format: in vivo; conditions: male, Sprague-Dawley; rat, oral, 7.2 mg/kg, plasma; read-out: AUC0-24 h Plasma
Counter-ions that a name gives are not always drawn.
AUC(0-t) values by entry
// return numeric value only (unit: ng·h/mL, not printed)

Recorded results for 3 compounds are shown here.
{"columns": ["compound", "AUC(0-t) / ng·h/mL"],
 "data": [
  ["Cl.[2H]C([2H])(Oc1cc(F)cc(O)c1C=O)c1cccnc1-c1ccnn1C(C)C", 10700],
  ["CC(C)n1nccc1-c1ncccc1COc1cccc(O)c1C=O [GBT-440 (HCl salt), reference compound]", 22800],
  ["[2H]C([2H])(Oc1cccc(O)c1C=O)c1cncnc1-c1ccnn1C(C)C", 10700]
]}

Query compound follows.
-- ask Bench note: what AUC(0-t) did Cl.[2H]C([2H])(Oc1cccc(O)c1C=O)c1cccnc1-n1ccnc1C(C)C show?
-- reply 42600

* * *

Assay system CYP2C19 (Homo sapiens); read-out recorded as pIC50.
Schema: pIC50 number; meaning minus log10 of the concentration expressed in molar units.

Recorded results for 2 compounds are shown here.
{"columns": ["compound", "pIC50"],
 "data": [
  ["[2H]C([2H])(Oc1cc(F)cc(O)c1C=O)c1cccnc1-c1ccnn1C(C)C [Example 27b]", 5.21],
  ["[2H]C([2H])(Oc1cccc(O)c1C=O)c1cccnc1-n1ccnc1C(C)C [Example 29e]", 4.71]
]}

-- ask Bench note: what pIC50 did CC(C)n1nccc1-c1ncccc1COc1cccc(O)c1C=O [GBT440, reference compound] show?
-- reply 5.15

* * *

half-life values by entry
Assay: Pharmacokinetic study in rats (plasma and red blood cell)
Format: in vivo
Settings: male, Sprague-Dawley; rat, oral, 7.2 mg/kg, plasma; read-out: T1/2 Plasma (converted)
Procedure: Rats (Sprague-Dawley, male, 220-280 g) were dosed with GBT-440 (HCl salt) and one of three compounds corresponding to Example 27, 29, and 38. The rats received oral (7.2 mpk) doses of the compound. […] Whole blood sample collection: Blood samples ([…]) were collected at pre-dose, 15, 30 min, 1, 2, 4, 8, 12 and 24 h via jugular vein into tubes and anticoagulated with 3.2% TSC (trisodium citrate). […] The sampling time was recorded accordingly. […]
Structures can show the parent of a compound that is named as a salt.
// return numeric value only (unit: h, not printed)

{"columns": ["molecule", "observation_type", "unit_text", "numeric_value"],
 "data": [
  ["Cl.[2H]C([2H])(Oc1cccc(O)c1C=O)c1cccnc1-n1ccnc1C(C)C", "half-life", "h", 12],
  ["Cl.[2H]C([2H])(Oc1cc(F)cc(O)c1C=O)c1cccnc1-c1ccnn1C(C)C", "half-life", "h", 18],
  ["CC(C)n1nccc1-c1ncccc1COc1cccc(O)c1C=O [GBT-440 (HCl salt), reference compound]", "half-life", "h", 19]
]}

Query molecule follows.
-- ask Bench note: what half-life did [2H]C([2H])(Oc1cccc(O)c1C=O)c1cncnc1-c1ccnn1C(C)C show?
-- reply 11
